Ratio Ki listing for selected compounds.
Species: Homo sapiens
experiment summary: Selectivity ratio of Ki for human 5HT3A receptor to Ki for human 5HT4C receptor
Please reply with the value in numeric form only.

Illustrative cases are given below, each with its answer.
INSERT INTO measurements (mol_smiles, metric, result) VALUES
  ('CC(C)n1nc(C(=O)N[C@H]2C[C@H]3CC[C@@H](C2)N3)c2ccccc21', 'Ratio Ki', 0.092),
  ('COc1ccc2[nH]cc(C(=O)NCCN3CCNCC3)c2c1', 'Ratio Ki', 25),
  ('CC(C)n1c(=O)c(C(=O)N[C@H]2C[C@H]3CC[C@@H](C2)N3CCCN2CCN(c3ccccc3)CC2)cc2ccccc21', 'Ratio Ki', 1000);

// next entry
Consider the compound `CC(C)n1c(=O)c(C(=O)N[C@H]2C[C@H]3CC[C@@H](C2)N3CCCN2CCN(S(C)(=O)=O)CC2)cc2ccccc21` and give its measured Ratio Ki. 2300

====

experimental system: hERG (KCNH2) (Homo sapiens)
Sequence (Q12809 whole entry): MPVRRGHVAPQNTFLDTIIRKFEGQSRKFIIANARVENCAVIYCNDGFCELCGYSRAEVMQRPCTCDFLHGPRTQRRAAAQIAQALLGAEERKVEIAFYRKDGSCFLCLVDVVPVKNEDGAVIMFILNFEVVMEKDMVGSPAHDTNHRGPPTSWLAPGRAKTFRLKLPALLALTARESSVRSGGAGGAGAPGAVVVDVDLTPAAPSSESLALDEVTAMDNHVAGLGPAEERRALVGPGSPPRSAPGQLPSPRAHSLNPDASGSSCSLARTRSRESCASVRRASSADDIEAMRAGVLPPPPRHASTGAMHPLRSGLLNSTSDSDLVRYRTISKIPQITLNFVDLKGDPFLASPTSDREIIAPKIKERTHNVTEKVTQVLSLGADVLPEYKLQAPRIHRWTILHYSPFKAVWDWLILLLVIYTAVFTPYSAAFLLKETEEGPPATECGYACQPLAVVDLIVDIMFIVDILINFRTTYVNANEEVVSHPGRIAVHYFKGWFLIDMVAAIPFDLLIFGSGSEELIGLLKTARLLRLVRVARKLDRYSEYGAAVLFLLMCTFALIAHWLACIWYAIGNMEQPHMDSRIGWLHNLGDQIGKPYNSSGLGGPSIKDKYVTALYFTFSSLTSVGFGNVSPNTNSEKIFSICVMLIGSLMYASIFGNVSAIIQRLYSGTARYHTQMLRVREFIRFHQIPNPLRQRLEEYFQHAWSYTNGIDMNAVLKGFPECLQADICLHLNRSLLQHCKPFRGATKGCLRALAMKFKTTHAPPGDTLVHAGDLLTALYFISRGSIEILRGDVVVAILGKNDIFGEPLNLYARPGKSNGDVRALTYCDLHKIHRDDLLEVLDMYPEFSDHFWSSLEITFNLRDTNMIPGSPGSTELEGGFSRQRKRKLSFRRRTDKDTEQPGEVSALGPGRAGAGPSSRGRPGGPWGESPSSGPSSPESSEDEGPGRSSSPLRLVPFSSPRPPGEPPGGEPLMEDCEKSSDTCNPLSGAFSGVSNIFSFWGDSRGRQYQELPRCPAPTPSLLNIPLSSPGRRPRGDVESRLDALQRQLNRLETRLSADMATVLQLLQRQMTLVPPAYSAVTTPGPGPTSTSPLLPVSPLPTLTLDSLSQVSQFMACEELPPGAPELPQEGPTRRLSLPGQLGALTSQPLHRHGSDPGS
experiment summary: Inhibition of human ERG potassium channel expressed in CHO-K1 cells at 3 uM by whole cell voltage clamp assay
Assay type: cell-based
settings: CHO-K1 cells expressing human ERG potassium channel
Quick rule for you: inhibition at 3 µM at 10% or higher means met, lower means not met.

Answered examples (10):
INSERT INTO measurements (mol_smiles, experimental_system, group) VALUES
  ('CC(C)n1c(=O)c(C(=O)N[C@H]2C[C@H]3CC[C@@H](C2)N3CCCN2CCC[C@@H]2C(N)=O)cc2ccccc21', 'hERG (KCNH2) (Homo sapiens)', 'met'),
  ('CC(C)n1c(=O)c(C(=O)N[C@H]2C[C@H]3CC[C@@H](C2)N3CCCN2CCOCC2)cc2ccccc21', 'hERG (KCNH2) (Homo sapiens)', 'met'),
  ('CC(C)n1c(=O)c(C(=O)N[C@H]2C[C@H]3CC[C@@H](C2)N3CCCCCCCN2CCOCC2)cc2ccccc21', 'hERG (KCNH2) (Homo sapiens)', 'met'),
  ('CC(C)n1c(=O)c(C(=O)N[C@H]2C[C@H]3CC[C@@H](C2)N3CCCCCCCN(C)CCCN(C)S(C)(=O)=O)cc2ccccc21', 'hERG (KCNH2) (Homo sapiens)', 'met'),
  ('CC(C)n1c(=O)c(C(=O)N[C@H]2C[C@H]3CC[C@@H](C2)N3CCCCCCCN2CCC[C@@H]2C(N)=O)cc2ccccc21', 'hERG (KCNH2) (Homo sapiens)', 'not met'),
  ('CC(C)n1c(=O)c(C(=O)N[C@H]2C[C@H]3CC[C@@H](C2)N3C[C@H](O)CN2CCN(S(C)(=O)=O)CC2)cc2ccccc21', 'hERG (KCNH2) (Homo sapiens)', 'not met'),
  ('CC(C)n1c(=O)c(C(=O)N[C@H]2C[C@H]3CC[C@@H](C2)N3CCCN2CCN(c3ccccc3)CC2)cc2ccccc21', 'hERG (KCNH2) (Homo sapiens)', 'met'),
  ('CC(C)n1c(=O)c(C(=O)N[C@H]2C[C@H]3CC[C@@H](C2)N3CCCN2CCC(CNS(C)(=O)=O)CC2)cc2ccccc21', 'hERG (KCNH2) (Homo sapiens)', 'met'),
  ('CC(C)n1c(=O)c(C(=O)N[C@H]2C[C@H]3CC[C@@H](C2)N3C[C@@H](O)CN2CCN(S(C)(=O)=O)CC2)cc2ccccc21', 'hERG (KCNH2) (Homo sapiens)', 'not met'),
  ('CC(C)n1c(=O)c(C(=O)N[C@H]2C[C@H]3CC[C@@H](C2)N3CCCCCCCN2CCCCC2)cc2ccccc21', 'hERG (KCNH2) (Homo sapiens)', 'not met');

# bool: inhibition at 3 µM of `CCOC(=O)N1CCN(CCCCCCCN2[C@@H]3CC[C@H]2C[C@@H](NC(=O)c2cc4ccccc4n(C(C)C)c2=O)C3)CC1` >= 10% met

// same read-out, input: `CC(C)n1c(=O)c(C(=O)N[C@H]2C[C@H]3CC[C@@H](C2)N3CCCN2CCN(S(C)(=O)=O)CC2)cc2ccccc21` met

Param item: `CCOC(=O)N1CCN(CCCN2[C@@H]3CC[C@H]2C[C@@H](NC(=O)c2cc4ccccc4n(C(C)C)c2=O)C3)CC1` met

Note, next up: `CC(C)n1c(=O)c(C(=O)N[C@H]2C[C@H]3CC[C@@H](C2)N3CCCCCCCN2CCN(c3ccccc3)CC2)cc2ccccc21` met

One more compound: `CC(C)n1c(=O)c(C(=O)N[C@H]2C[C@H]3CC[C@@H](C2)N3CCCCCCCN2CCC(CNS(C)(=O)=O)CC2)cc2ccccc21` not met

Same question, `CC(C)n1c(=O)c(C(=O)N[C@H]2C[C@H]3CC[C@@H](C2)N3CCCN2CCCCC2)cc2ccccc21` this time met

Try this compound next: `CC(C)n1c(=O)c(C(=O)N[C@H]2C[C@H]3CC[C@@H](C2)N3CCCCCCCN2CCN(S(C)(=O)=O)CC2)cc2ccccc21` met

Lookup `CC(C)n1c(=O)c(C(=O)N[C@H]2C[C@H]3CC[C@@H](C2)N3CCCN(C)CCCN(C)S(C)(=O)=O)cc2ccccc21` not met
